Origin of the recorded values: patent US20110081661A1

Molecular target: T1, GIP Receptor (Homo sapiens, UniProt P48546)
T1 construct: host or cells: HEK293T
T1 sequence (P48546 22-466): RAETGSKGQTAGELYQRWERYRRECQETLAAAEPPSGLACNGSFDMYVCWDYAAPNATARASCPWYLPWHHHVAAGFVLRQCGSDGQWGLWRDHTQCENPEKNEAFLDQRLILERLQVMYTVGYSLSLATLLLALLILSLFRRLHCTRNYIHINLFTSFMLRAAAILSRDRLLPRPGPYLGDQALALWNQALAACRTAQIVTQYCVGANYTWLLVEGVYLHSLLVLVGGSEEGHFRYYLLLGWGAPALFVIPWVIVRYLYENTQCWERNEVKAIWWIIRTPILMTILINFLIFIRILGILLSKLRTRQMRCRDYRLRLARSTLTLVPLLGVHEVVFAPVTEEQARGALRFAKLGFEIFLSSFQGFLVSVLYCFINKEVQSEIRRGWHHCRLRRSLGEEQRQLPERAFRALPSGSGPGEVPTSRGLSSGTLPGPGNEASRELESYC
Test: GIP receptor-mediated bioluminescence in HEK293T cells with chimeric promiscuous G protein (FIG. 5, Table II)
Type: cell-based
Details: HEK293T cells, GIP Receptor + promiscuous G protein
Procedure: However, coexpression of GIP receptor with a chimeric G protein containing sequences from Gαs and Gαq enable the GIP receptor to stimulate calcium flux. […] Signal to background ratio was calculated as the signal induced by maximal GIP (1 μM) divided by the signal induced by buffer alone. The EC50 value for calcium was determined as described above for FIG. 2 for mitochondrially targeted photoproteins transfected into HEK293T cells in the absence of a cotransfected GPCR or G protein. […]

molecule	Max signal with GIP (RLU × 10^−5)
Mt-clytin K168N: Mitochondrial K168N modified Clytin, SEQ ID NO:18 (protein) MSVLTPLLLRGLTGSARRLPVPRAKIHSLPPEGKLRPNFDNPKWVNRHKFMFNFLDINGDGKITLDEIVSKASDDICAKLGATPEQTKRHQDAVEAFFKKIGMDYGKEVEFPAFVDGWKELANYDLKLWSQNKKSLIRDWGEAVFDIFDKDGSGSISLDEWKAYGRISGICSSDEDAEKTFKHCDLDNSGNLDVDEMTRQHLGFWYTLDPNADGLYGNFVP	3.82
Cyto-clytin K168E: K168E modified Clytin amino acid sequence, SEQ ID NO:11; cytosolic (protein) MADTASKYAVKLRPNFDNPKWVNRHKFMFNFLDINGDGKITLDEIVSKASDDICAKLGATPEQTKRHQDAVEAFFKKIGMDYGKEVEFPAFVDGWKELANYDLKLWSQNKKSLIRDWGEAVFDIFDKDGSGSISLDEWKAYGRISGICSSDEDAEKTFKHCDLDNSGELDVDEMTRQHLGFWYTLDPNADGLYGNFVP	6.47
Cyto-clytin wt: Wild type Clytin (wt-Clytin) amino acid sequence, SEQ ID NO:1; cytosolic (protein, listed as Clytia gregaria) MADTASKYAVKLRPNFDNPKWVNRHKFMFNFLDINGDGKITLDEIVSKASDDICAKLGATPEQTKRHQDAVEAFFKKIGMDYGKEVEFPAFVDGWKELANYDLKLWSQNKKSLIRDWGEAVFDIFDKDGSGSISLDEWKAYGRISGICSSDEDAEKTFKHCDLDNSGKLDVDEMTRQHLGFWYTLDPNADGLYGNFVP	0.2
Cyto-obelin: Wild-type Obelin (wt-Obelin) amino acid sequence, SEQ ID NO:4; cytosolic (protein, listed as Obelia longissima) MSSKYAVKLKTDFDNPRWIKRHKHMFDFLDINGNGKITLDEIVSKASDDICAKLEATPEQTKRHQVCVEAFFRGCGMEYGKEIAFPQFLDGWKQLATSELKKWARNEPTLIREWGDAVFDIFDKDGSGTITLDEWKAYGKISGISPSQEDCEATFRHCDLDNSGDLDVDEMTRQHLGFWYTLDPEADGLYGNGVP	1.80
Mt-clytin K168Y: Mitochondrial K168Y modified Clytin, SEQ ID NO:28 (protein) MSVLTPLLLRGLTGSARRLPVPRAKIHSLPPEGKLRPNFDNPKWVNRHKFMFNFLDINGDGKITLDEIVSKASDDICAKLGATPEQTKRHQDAVEAFFKKIGMDYGKEVEFPAFVDGWKELANYDLKLWSQNKKSLIRDWGEAVFDIFDKDGSGSISLDEWKAYGRISGICSSDEDAEKTFKHCDLDNSGYLDVDEMTRQHLGFWYTLDPNADGLYGNFVP	2.89
Cyto-clytin K168D: K168D modified Clytin amino acid sequence, SEQ ID NO:9; cytosolic (protein) MADTASKYAVKLRPNFDNPKWVNRHKFMFNFLDINGDGKITLDEIVSKASDDICAKLGATPEQTKRHQDAVEAFFKKIGMDYGKEVEFPAFVDGWKELANYDLKLWSQNKKSLIRDWGEAVFDIFDKDGSGSISLDEWKAYGRISGICSSDEDAEKTFKHCDLDNSGDLDVDEMTRQHLGFWYTLDPNADGLYGNFVP	8.76
Mt-clytin K168S: Mitochondrial K168S modified Clytin, SEQ ID NO:22 (protein) MSVLTPLLLRGLTGSARRLPVPRAKIHSLPPEGKLRPNFDNPKWVNRHKFMFNFLDINGDGKITLDEIVSKASDDICAKLGATPEQTKRHQDAVEAFFKKIGMDYGKEVEFPAFVDGWKELANYDLKLWSQNKKSLIRDWGEAVFDIFDKDGSGSISLDEWKAYGRISGICSSDEDAEKTFKHCDLDNSGSLDVDEMTRQHLGFWYTLDPNADGLYGNFVP	3.84
Mt-clytin K168V: Mitochondrial K168V modified Clytin, SEQ ID NO:26 (protein) MSVLTPLLLRGLTGSARRLPVPRAKIHSLPPEGKLRPNFDNPKWVNRHKFMFNFLDINGDGKITLDEIVSKASDDICAKLGATPEQTKRHQDAVEAFFKKIGMDYGKEVEFPAFVDGWKELANYDLKLWSQNKKSLIRDWGEAVFDIFDKDGSGSISLDEWKAYGRISGICSSDEDAEKTFKHCDLDNSGVLDVDEMTRQHLGFWYTLDPNADGLYGNFVP	3.60
Mt-clytin K168H: Mitochondrial K168H modified Clytin, SEQ ID NO:14 (protein) MSVLTPLLLRGLTGSARRLPVPRAKIHSLPPEGKLRPNFDNPKWVNRHKFMFNFLDINGDGKITLDEIVSKASDDICAKLGATPEQTKRHQDAVEAFFKKIGMDYGKEVEFPAFVDGWKELANYDLKLWSQNKKSLIRDWGEAVFDIFDKDGSGSISLDEWKAYGRISGICSSDEDAEKTFKHCDLDNSGHLDVDEMTRQHLGFWYTLDPNADGLYGNFVP	4.98
